# PROTOCOL_DESCRIPTION: yeast display, Sf9 membrane polyspecificity reagent, FACS + sequencing; frameworks hold sequencing errors

RESIDUE_CODES	polyreactivity (PSR sort gate)
QDQLVETGGGLVQAGCSLRLSCAASGRIFVPYAMGWYRQSHGKERELVAAISGSDGSTYYADSVKGRFTISRDNAKNTVYLQMNRLKPEDTAVYYCARLLIYAPPSGSHRYYPFDYWGQGTQETVSS	low polyreactivity
QVQLVASGGGLVQARGSLRLSCAASGRTFTYYAMGWYRQAPGKESELVAAISDSGGSTYYADSVKGRFTISRDNAKNTVYVQMNSLKPEDTAVYYCAAYRYVGPWTDVGSPDYDDWGQGTQVTVSS	low polyreactivity
QVQLVESGGGLVQAGGSLRLSCAASGSIFSSNAMGWYRQAPGKERELVAAISSSGSRTYYADSVKGRFTISRDNAKNTVYLQMNSLKPEDTAVYYCAAVIRYTRSYDYWGQGTQVTVSS	high polyreactivity
QVQLVESGGGLVQAGGSLRLSCAASGRIFAQYAMGWYRQAPGKERELVAAISSGGNTYYADSVKGRFTISRDNAKNTVYLQMNSLKPEDTAVYYCAASSRRYLWGFDYWGQGTQVTVSS	low polyreactivity
QVQLVESGGGLVQAGGSLRLICAATGFTFHNNVMGWYRQAPGKERELVATISKSGGSTYYADSVKGRFTISRDNAKNTVYLQMNRLKPEDTAVYYCARRYRDYGRYGYWGQGTQVTVSS	high polyreactivity
QVQLVESGGGLVQAGGSLRLSCAASGSTYYNAMGWYRQAPGKERELVAAIRFRSGSTYYADSVKGRFTISRDNAKNTVYLQMNSLKPEDTAVYYCAADNKRSWRYAYNYWGQGTQVTVSS	high polyreactivity
QVQLVESGGGLVQAGGSLRLSCAASGSIIGRNAMGWYRQAPGKERELVAAISTRGGRTYYADSVKGRFTISRDNAKNTVYLQMNSLKPEDTAVYYCADTYQYLKSGYYWGQGTQVTVSS	high polyreactivity
QVQVVESGGGLVQAGGSLRLSCAASGSTFPGNAMGWYRQAPGKERDLVAAITSTGTTYYADSVKGRFTISRDNAKNTVYLQMNSLKPEDTAVYYWNADPSPDPSTFDYWGQGTLVTVSS	low polyreactivity
QVQLVESGGGLVQAGGSLRLSCAASGNIFTGYMGWYRQAPGKERELVAAISRSGGRTHYADSVKGRFTISRDNAKNTVYLQMNSLKPEDTAVYYCNADVRRYTAFTKDAYAFNYWGQGTQVTVSS	high polyreactivity
QVQLVESGGGLVQAGGSLRLSCAASGLIFLEYAMGWYRQAPGKEREMVAAISTSGGSTYYADSVKGRFTISRDNAKNTVYLQLNSLTPEDTAVYYCAADPVYNYYFDDGDYWGQGTQVTVSS	low polyreactivity
QVQLVESAGGLVQAGGSLRLSCAASGRIFPYNVIGWYRQAPGKERELVAAISSGGTTDYADSVKGRFTISRDNAKNTVYLQMNSLKPEDTAVYYCAATYVYWTWGYDYWGQGTQVTVSS	low polyreactivity
QDQLVESGGGLVQEGGSLRLSCAASGRIFVGYAMGWSRQAPGKERELVAAISSSGGRTYYADSVKGRFTISRDNAKNTVYFQMNSLQPEDTAVYYCAAGRFIWGTWALDYWGQGTQVTVSS	high polyreactivity
QVQLVESGGGLVQAGGSLRLSCAASGSIFYENAMGWYRQAPGKERELVAAISRSGGSTYYADSVKGRFTISRDNAKNTVYLQMNSLKPEDTAVYYCAADVYVFIGDYWGQGTQVTVSS	low polyreactivity
QVQLVESGGGLVQAGGSLRLSCAASGITFDGYAMGWYRQAPGKERELVAAISISGASTYYADSVKGRFTISRDNAKNTVYLQKNSLKPEDTAVYYCAASSWINQYPGDYWGQGTQVTVSS	high polyreactivity
QVQLVESGGGLVQAGGSLRLSCAASGSIFRSYAMGWYRQAPGKERELVAAISRGGSTTYADSVKGRFTISRDNAKNTVYLQMNSLKPEDTAVYYCAVANVYYEGYDYWGQGTQVTVSS	low polyreactivity
QVQLVESGGGLVQAGGSLRLSCAASGSIFRSYAMGWYRQAPGKERELVAAIRGGGSTNYADSVKGRFTISRDNAKNTVYLQMNSLKPEDTAVYYFAADKKTKVDWGQGTQVTVSS	high polyreactivity
QVQLVESGGGLVQAGGSLRLSCAASGFTFYRYTMGWSRQAPGKERELVAAISARGVSTYYADSVKGRFTISRDNAKNTVYLQMNCLKPEDTAVYYCYVSRYDSWGQGTQVTVSS	high polyreactivity
QVQLVESGGGLVQAGGSLRLICAASGGTFQSNAMGWYRQAPGKERELVASITSRGSSTYYADSVKGRFTISRDNAKNTVYLLMNSLKPEDTAVYYCAKGRSWQIYYKGGIKGGYWGQGTQVTVSS	low polyreactivity
QVQLVESGGGLVQAGGSLRLICAASGSIFVGYAMGWCRQAPGKERELVAAIRSGGSTKYADSVKGRFTISRDNAKNTVYLQMNSLKPEDTAVYYCNVEVHPYYWVDNFHRFPVLHNYWGQGTQVTVSS	low polyreactivity
QVQLVESGGGLVQAGGSLRLSCAASGRTLISYAMGWYRQAPGKERELVAAISWGGSSTYYADSVKGRFTISGDNAKNTVYLQMNSLKPEDTAVYYCAAVSYRGRGLSRYVAYGYKYDYWGQGTQVTVSS	high polyreactivity
QVQLVESGGGLVQAGGSLRLSCAASGSIFVWYDLGWSRQAPGKERELVATISLSGVSTYYADSVKGRFTISRDTAKNTVYLQMISLKPEDTAVYYCAADFVEQGVDDFWGQGSQVTVSS	low polyreactivity

###

# PROTOCOL_DESCRIPTION: yeast display, Sf9 membrane polyspecificity reagent, FACS + sequencing; frameworks hold sequencing errors
READOUT: polyreactivity (PSR sort gate)

RESIDUE_CODES	READOUT	RESULT
QVQLVESGGGLVQAGGSLRLSCAACGRILTYYAMGWYRQAPGKERELVAAISWRAGSTYYADSVKGRFTISRDNAKNTVYLQMNSLKPEDTAVYYCAAKPYYIPTRTYSHYNYWGQGTQVTVSS	polyreactivity (PSR sort gate)	high polyreactivity
QVQLVESGGGLVQAGGSLRLSCAASGRTSIYNAMGWYRQAPGKDREFVAAITSSGGSTYYADSVKGRFTISRDNAKNTVYLQMNSLKPEDTAVYYCAARPAYVYAYYRYGYWGQGTQVTVSS	polyreactivity (PSR sort gate)	high polyreactivity
QVQLVESGGGLVQAGGSLRLSCAASGSIFNPYVMGWYRQAPGKERELVAAISSSGGRTYYADSVKGRFTISRDNAKNTVYLQMNSLKPEDTAVYYCAAIPRQGYDYWGQGTQVTVSS	polyreactivity (PSR sort gate)	high polyreactivity
QVQLVESGGGLVQAGGSLRLSCAASGFIFDYNAMGWYRQAPGKERELVDAISGGGGSTYYADSVKGRFTISRDNAKNTVFLLMNSLKPEDTSVYDCAKRYRGGYWGQGSQVTVSS	polyreactivity (PSR sort gate)	high polyreactivity
QVQLVESGGGLVQAGGSLRLSCAASGFTFKLNAMGWYRQAPGKERELVATISSSGGSTFYADSVKGRFTISRDNAKNTVYLQMNSLKPEDTAVYYCAADSGYGPYYYWGQGTQVTVSS	polyreactivity (PSR sort gate)	high polyreactivity
QVQLVESGGGLVQAGGSLRLSCAASGRIFVYNAMGWYRQAPGKERELVAAITSGGSTYYADSVKGRFTISRDNAKNTVYLQMNSLKPEDTAVYYCAATYFSYTYSRYDYWGQGTQVTVSS	polyreactivity (PSR sort gate)	high polyreactivity
QVQLVESGGGLVQAGGSLSLSCPASGRTFSTNAMGWYRQAPGKEREMVAAISARGGSTYYADSVKGRFTISRDNAKNTVYLQMNSLKPEDTAVEYCALRPGRYSYAFDFWGQGTQVTVSS	polyreactivity (PSR sort gate)	high polyreactivity
QVQLVESGGGLVQAGGSLRLSCAASGRTFRSNAMGWYRQAPGKERELVAAISKGGDRTYYADSVKGRFTISRDNAKNNVYLHMNSLKPEDTAVYYCAARYTPSRYYYWGQGTQVTVSS	polyreactivity (PSR sort gate)	high polyreactivity
QVQLVESGGGLVQAGGSLRLSCAASGRTFSANTMGRYRQAPGKERELVAAITRGASTKYADSVKGRFTISRDNAKNTVYLPMNSLNPDDTAVYYCAAAVAYEYLQYAYTRYYYWGQGTQVTVSS	polyreactivity (PSR sort gate)	high polyreactivity
QVQLVESGGGLVQAGGSLRLSCAASGRIFYFNGMGWDRQAPGKERELVAAITWNTGSTYYADSVKGRFTISRDNAKNTVYLQMNSLKPEDTAVYYCNAPWAGQHPTLWKGGYWGQGTQVTVSS	polyreactivity (PSR sort gate)	low polyreactivity
QVQLVESGGGLVQAGGSLRLSCAASGRTFDLNDMGWYRQAPGKEREFVADIDWSGGNTYYADSVKGRFIISRDNAKNTVYLQMNSLKPEDTAVYYCNARRKRSYDYWGQGTQVTVSS	polyreactivity (PSR sort gate)	low polyreactivity
